FYI, the data here is from paper PMC8560897.

I'd be grateful if you could share measured IC50 at 24 h for these entries.
# Assay Protocol: in vitro
# Type: cell-based
# Conditions Used: human
No end group written: not given here.
Entry rule: numbers only, all in µM.

Prompt: State, in one line, measured IC50 at 24 h of FIPVSGLFKLL-NH2 [Temporin-FLb, FIPVSGLFKLL-NH2]
Response: 375

Prompt: Look up and state reported IC50 at 24 h for FIPLVSGLFKLL-NH2 [Temporin-FLa, FIPLVSGLFKLL-NH2]
Response: 46.6

Prompt: Quick one: give measured IC50 at 24 h for H-FIPLVSGLFSKLL-NH2 [Temporin-FL, FIPLVSGLFSKLL-NH2]
Response: 83.4
